# Target or test system: Plasmodium falciparum thioredoxin reductase (PfTrxR) (Plasmodium falciparum, UniProt P61076)
# Sequence (P61076 1-541 isoform P61076-2): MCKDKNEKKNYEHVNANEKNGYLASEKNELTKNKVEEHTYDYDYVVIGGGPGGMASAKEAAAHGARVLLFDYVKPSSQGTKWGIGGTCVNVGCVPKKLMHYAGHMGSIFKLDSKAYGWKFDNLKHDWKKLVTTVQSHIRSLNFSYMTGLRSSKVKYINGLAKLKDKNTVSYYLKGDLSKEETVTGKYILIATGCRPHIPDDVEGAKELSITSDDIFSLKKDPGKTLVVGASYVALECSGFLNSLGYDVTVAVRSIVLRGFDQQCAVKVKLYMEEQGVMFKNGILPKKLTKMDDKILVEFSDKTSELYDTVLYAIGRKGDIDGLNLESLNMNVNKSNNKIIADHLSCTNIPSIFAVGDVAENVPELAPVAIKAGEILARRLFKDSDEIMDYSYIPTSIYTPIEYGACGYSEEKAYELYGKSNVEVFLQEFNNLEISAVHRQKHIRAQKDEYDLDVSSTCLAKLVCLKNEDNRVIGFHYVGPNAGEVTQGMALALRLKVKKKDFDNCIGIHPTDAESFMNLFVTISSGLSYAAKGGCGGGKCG
# Protocol notes: biochemical
# Run parameters: cytosolic PfTrxR (PfTrxR 1 isoform), titrated 50 to 0.07 µM
# reported IC50; entries follow
Measurement type: IC50

Molecule	Measurement type	Result
CCOc1cc2c(cc1OCC)C(c1cc(OC)c(O)cc1Cl)NCC2 (centres unmarked) [Compound 3]	IC50	6.6 µM
O=C1C(O)=C([C@H]2CC[C@H](c3ccc(Cl)cc3)CC2)C(=O)c2ccccc21 [Atovaquone, reference compound]	IC50	> 10 µM
CCCc1c(CC)c(=N)c2ccccc2n1C [Compound 5]	IC50	7.5 µM
CCc1c(C)c(=N)c2ccccc2n1C [Compound 1]	IC50	3.5 µM
COc1ccccc1NC1=C(N2CCCCC2)C(=O)c2ccccc2C1=O [Compound 2]	IC50	0.9 µM

* * *

# Target or test system: Plasmodium falciparum thioredoxin reductase (PfTrxR) (Plasmodium falciparum)
# Protocol notes: biochemical
# Assay type: biochemical
# Run parameters: Figure 2
Decide by Hill slope of dose response curve against PfTrxR: equal to or exceeding 1 means True, less means False.

Compound	Target or test system	Assigned label
COc1ccc(-c2c(C)nn3c(N)c(C#N)cnc23)cc1OC	Plasmodium falciparum thioredoxin reductase (PfTrxR) (Plasmodium falciparum)	True
CCCc1c(CC)c(=N)c2ccccc2n1C	Plasmodium falciparum thioredoxin reductase (PfTrxR) (Plasmodium falciparum)	True
CCOc1cc2c(cc1OCC)C(c1cc(OC)c(O)cc1Cl)NCC2 (centres unmarked)	Plasmodium falciparum thioredoxin reductase (PfTrxR) (Plasmodium falciparum)	False
CCc1c(C)c(=N)c2ccccc2n1C	Plasmodium falciparum thioredoxin reductase (PfTrxR) (Plasmodium falciparum)	True
COc1ccccc1NC1=C(N2CCCCC2)C(=O)c2ccccc2C1=O	Plasmodium falciparum thioredoxin reductase (PfTrxR) (Plasmodium falciparum)	False

Measured values drawn from paper PMC6273446 for this set.
